Just for reference, ChEMBL document CHEMBL1153615 is where these values come from.

Reported IC50 by item:
Tested on: J82
experiment.notes: Cytotoxicity against human J82 cells after 3 days by MTT assay
Format: functional, cell-based
condition.description: J82, 72 h

>  <molecule>
COC(=O)N1CCc2c3n(c4cc(Br)ccc24)[C@@H](O)CCC[C@@H]31

>  <relation.operator>
=

>  <IC50, µM>
16.4

$$$$
>  <molecule>
COC(=O)N1CCc2c([nH]c3cc(Br)ccc23)[C@@H]1CCCC=O

>  <relation.operator>
=

>  <IC50, µM>
74.9

$$$$
>  <molecule>
C=CCCCC1=NCCc2c1[nH]c1ccccc21

>  <relation.operator>
=

>  <IC50, µM>
47.6

$$$$
>  <molecule>
CN1CCc2c3n(c4cc(Br)ccc24)[C@@H](O)CCC[C@@H]31

>  <relation.operator>
>

>  <IC50, µM>
100

$$$$
>  <molecule>
C=CCCC[C@@H]1NCCc2c1[nH]c1ccccc21

>  <relation.operator>
=

>  <IC50, µM>
25.7

$$$$
>  <molecule>
CN1CCc2c3n(c4ccccc24)[C@@H](O)CCC[C@@H]31 [DESBROMOARBORESCIDINE C]

>  <relation.operator>
>

>  <IC50, µM>
100

$$$$
